Recorded values, source paper PMC4315616.

- TEST_TARGET: T1, SNV nucleocapsid protein N wild type (SNVN) (Sin Nombre hantavirus, UniProt Q89462 1-428)
- T1 sequence: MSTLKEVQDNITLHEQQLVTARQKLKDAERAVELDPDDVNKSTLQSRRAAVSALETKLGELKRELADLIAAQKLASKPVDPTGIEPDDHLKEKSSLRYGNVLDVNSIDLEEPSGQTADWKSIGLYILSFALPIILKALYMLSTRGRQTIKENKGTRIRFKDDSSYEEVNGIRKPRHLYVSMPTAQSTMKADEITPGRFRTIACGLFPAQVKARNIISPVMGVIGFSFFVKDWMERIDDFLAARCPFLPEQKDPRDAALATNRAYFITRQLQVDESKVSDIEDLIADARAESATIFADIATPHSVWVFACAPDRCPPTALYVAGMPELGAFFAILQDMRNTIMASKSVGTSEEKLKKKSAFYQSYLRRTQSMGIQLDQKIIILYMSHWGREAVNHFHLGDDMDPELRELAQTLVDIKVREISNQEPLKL
- TEST_METHOD_NOTES: BLI
pKd: −log10 of the molar value.

BINDER: GAUAUGUGAG (ssRNA, 5' mRNA cap (enzymatic, Cell Script)) [capped decameric RNA]
pKd: 6.97
